Field: IC50. Provide a value for each of the compounds that follow.
- System: 4T1
- assay-name: Cytotoxicity against mouse 4T1 cells after 72 hrs by MTT assay
- Format: functional, cell-based
- experimental-conditions: Mus musculus, 4T1, 72 h

IC50 in this record for Cc1cc2c(C(C)C)c(O)c(O)c(/C=N/C3C(=O)N4[C@@H]3SC(C)(C)[C@@H]4C(=O)O)c2c(O)c1-c1c(C)cc2c(C(C)C)c(O)c(O)c(/C=N/C3C(=O)N4[C@@H]3SC(C)(C)[C@@H]4C(=O)O)c2c1O (single isomer, unassigned) : > 40 µM

For "Cc1cc2c(C(C)C)c(O)c(O)c(/C=N/[C@@H](Cc3ccccc3)C(=O)O)c2c(O)c1-c1c(C)cc2c(C(C)C)c(O)c(O)c(/C=N/[C@@H](Cc3ccccc3)C(=O)O)c2c1O" the compound record lists IC50 as > 40 µM

So, "CO[C@@H](c1ccc([N+](=O)[O-])cc1)[C@H](CO)/N=C/c1c(O)c(O)c(C(C)C)c2cc(C)c(-c3c(C)cc4c(C(C)C)c(O)c(O)c(/C=N/[C@@H](CO)[C@@H](OC)c5ccc([N+](=O)[O-])cc5)c4c3O)c(O)c12" ? Its IC50 was > 40 µM

Per the records, this compound ( "Cc1cc2c(C(C)C)c(O)c(O)c(C=O)c2c(O)c1-c1c(C)cc2c(C(C)C)c(O)c(O)c(C=O)c2c1O" ) has IC50 equal to 18.8 µM

For this compound ( COC(=O)C(/N=C/c1c(O)c(O)c(C(C)C)c2cc(C)c(-c3c(C)cc4c(C(C)C)c(O)c(O)c(/C=N/C(C(=O)OC)c5c[nH]c6ccccc56)c4c3O)c(O)c12)c1c[nH]c2ccccc12 (stereo not drawn) ), measured IC50 is > 40 µM

# IC50 of CCC(C)[C@H](/N=C/c1c(O)c(O)c(C(C)C)c2cc(C)c(-c3c(C)cc4c(C(C)C)c(O)c(O)c(/C=N/[C@H](C(=O)O)C(C)CC)c4c3O)c(O)c12)C(=O)O (stereo partly drawn) = > 40 µM

Per the record, "CC1=C(C2=C(C)C(=O)c3c(c(/C=N/[C@@H]4C(=O)N5[C@@H]4SC(C)(C)[C@@H]5C(=O)[O-])c(O)c(O)c3C(C)C)C2=O)C(=O)c2c(/C=N/[C@@H]3C(=O)N4[C@@H]3SC(C)(C)[C@@H]4C(=O)[O-])c(O)c(O)c(C(C)C)c2C1=O.[Na+].[Na+]" has IC50 of 28.2 µM

What the record says about "CC/C(C)=C(\NCc1c(O)c(O)c(C(C)C)c2cc(C)c(-c3c(C)cc4c(C(C)C)c(O)c(O)c(CN/C(C(=O)O)=C(/C)CC)c4c3O)c(O)c12)C(=O)O" : IC50 is > 40 µM

---

- Test system: MCF7
- assay-name: Cytotoxicity against human MCF7 cells after 72 hrs by MTT assay
- Format: functional, cell-based
- experimental-conditions: Homo sapiens, MCF7, 72 h
Exercise: for every item that follows, state its recorded pIC50.
Lab note: report pIC50 as minus log10 of the concentration in molar units, number only.

Value of measured pIC50 for the entry Cc1cc2c(C(C)C)c(O)c(O)c(C=O)c2c(O)c1-c1c(C)cc2c(C(C)C)c(O)c(O)c(C=O)c2c1O [GOSSYPOL] : 4.90

pIC50 reported for this compound "CC/C(C)=C(\NCc1c(O)c(O)c(C(C)C)c2cc(C)c(-c3c(C)cc4c(C(C)C)c(O)c(O)c(CN/C(C(=O)O)=C(/C)CC)c4c3O)c(O)c12)C(=O)O" : 4.59

pIC50 reported for this compound CCC(C)[C@H](/N=C/c1c(O)c(O)c(C(C)C)c2cc(C)c(-c3c(C)cc4c(C(C)C)c(O)c(O)c(/C=N/[C@H](C(=O)O)C(C)CC)c4c3O)c(O)c12)C(=O)O (some centres undefined) : 4.55

Values were extracted from ChEMBL document CHEMBL1212914.
